The measured values listed here are drawn from paper PMC4042160.

biological target: full length LRRK2 protein (Homo sapiens); construct: compounds were tested in triplicate with full length LRRK2 protein; made in house; experiment: In vitro LRRKtide kinase assay with full length recombinant LRRK2, dose-response (IC50/pIC50); format: biochemical; settings: LRRKtide phosphorylation, dose-response
Sequence (Q5S007 whole entry): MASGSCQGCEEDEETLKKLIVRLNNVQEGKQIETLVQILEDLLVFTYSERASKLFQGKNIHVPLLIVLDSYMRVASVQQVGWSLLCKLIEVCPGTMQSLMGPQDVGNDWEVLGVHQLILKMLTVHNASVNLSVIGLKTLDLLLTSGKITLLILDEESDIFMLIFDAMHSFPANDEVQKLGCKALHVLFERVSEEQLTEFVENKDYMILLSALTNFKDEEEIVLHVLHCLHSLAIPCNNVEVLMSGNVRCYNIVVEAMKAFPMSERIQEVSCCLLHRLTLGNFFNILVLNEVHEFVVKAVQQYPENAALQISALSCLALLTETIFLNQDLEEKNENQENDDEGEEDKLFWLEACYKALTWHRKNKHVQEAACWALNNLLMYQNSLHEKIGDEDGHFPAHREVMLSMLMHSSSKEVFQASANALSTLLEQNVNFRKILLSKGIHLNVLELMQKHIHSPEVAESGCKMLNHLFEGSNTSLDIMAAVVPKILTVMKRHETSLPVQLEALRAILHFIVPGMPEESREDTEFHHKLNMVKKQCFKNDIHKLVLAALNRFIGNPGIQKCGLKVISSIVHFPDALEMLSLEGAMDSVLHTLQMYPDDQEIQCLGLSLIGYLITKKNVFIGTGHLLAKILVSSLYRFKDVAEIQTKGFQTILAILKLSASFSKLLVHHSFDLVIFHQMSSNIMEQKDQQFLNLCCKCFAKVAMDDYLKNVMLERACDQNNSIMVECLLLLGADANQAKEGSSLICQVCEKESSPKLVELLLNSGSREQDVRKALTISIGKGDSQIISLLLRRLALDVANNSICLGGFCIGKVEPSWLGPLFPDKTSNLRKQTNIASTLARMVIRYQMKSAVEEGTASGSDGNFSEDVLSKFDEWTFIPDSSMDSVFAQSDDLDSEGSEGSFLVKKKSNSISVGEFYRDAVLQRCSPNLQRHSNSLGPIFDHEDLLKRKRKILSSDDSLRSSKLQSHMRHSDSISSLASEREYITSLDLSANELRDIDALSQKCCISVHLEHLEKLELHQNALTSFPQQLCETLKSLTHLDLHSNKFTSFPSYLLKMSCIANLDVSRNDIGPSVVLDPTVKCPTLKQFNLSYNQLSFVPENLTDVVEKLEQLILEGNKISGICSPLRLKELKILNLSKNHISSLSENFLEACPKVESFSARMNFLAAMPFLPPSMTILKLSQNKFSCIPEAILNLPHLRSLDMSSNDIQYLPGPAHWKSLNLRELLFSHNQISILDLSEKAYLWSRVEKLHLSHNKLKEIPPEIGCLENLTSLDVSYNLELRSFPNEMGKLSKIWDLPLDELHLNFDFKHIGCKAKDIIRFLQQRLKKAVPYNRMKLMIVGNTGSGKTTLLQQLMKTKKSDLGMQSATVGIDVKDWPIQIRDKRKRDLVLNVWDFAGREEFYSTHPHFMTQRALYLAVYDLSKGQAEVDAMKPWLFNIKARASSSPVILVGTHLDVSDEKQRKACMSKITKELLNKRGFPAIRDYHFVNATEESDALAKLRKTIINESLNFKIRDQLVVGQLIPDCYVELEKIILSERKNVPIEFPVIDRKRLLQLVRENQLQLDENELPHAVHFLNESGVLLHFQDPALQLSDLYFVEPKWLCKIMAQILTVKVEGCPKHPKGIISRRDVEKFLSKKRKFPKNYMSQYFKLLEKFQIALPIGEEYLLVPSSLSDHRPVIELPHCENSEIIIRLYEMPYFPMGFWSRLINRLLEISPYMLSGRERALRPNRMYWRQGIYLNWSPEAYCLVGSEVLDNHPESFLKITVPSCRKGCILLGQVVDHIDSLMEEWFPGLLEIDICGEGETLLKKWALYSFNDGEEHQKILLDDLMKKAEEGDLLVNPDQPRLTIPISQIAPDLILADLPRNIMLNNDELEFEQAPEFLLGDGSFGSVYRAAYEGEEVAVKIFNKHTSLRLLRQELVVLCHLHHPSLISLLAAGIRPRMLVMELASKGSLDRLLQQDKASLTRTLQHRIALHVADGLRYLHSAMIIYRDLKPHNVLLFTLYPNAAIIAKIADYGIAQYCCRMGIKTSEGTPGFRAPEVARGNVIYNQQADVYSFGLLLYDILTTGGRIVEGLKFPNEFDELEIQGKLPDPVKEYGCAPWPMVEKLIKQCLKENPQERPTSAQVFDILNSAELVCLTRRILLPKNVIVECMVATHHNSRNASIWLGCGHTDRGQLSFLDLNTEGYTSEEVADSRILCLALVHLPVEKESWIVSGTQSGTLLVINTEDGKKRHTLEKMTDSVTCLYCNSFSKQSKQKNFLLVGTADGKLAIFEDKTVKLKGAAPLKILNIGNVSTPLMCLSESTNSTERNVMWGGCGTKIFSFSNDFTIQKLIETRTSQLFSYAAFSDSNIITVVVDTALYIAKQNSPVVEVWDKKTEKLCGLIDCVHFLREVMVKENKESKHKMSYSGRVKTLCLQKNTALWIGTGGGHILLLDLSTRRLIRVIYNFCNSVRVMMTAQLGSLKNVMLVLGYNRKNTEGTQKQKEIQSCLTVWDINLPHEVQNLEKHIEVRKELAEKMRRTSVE
Quantity: pIC50 in vitro (lrrktide)

| Compound | pIC50 in vitro (lrrktide) |
| --- | --- |
| COc1cc2ncnc(Nc3ccc(NC(=O)c4ccccc4)cc3)c2cc1OC | <5 |
| COc1cc2ncnc(Nc3ccc(OCc4ccccc4)cc3)c2cc1OC | <5 |
| CC(=O)O/N=C1/C(=C2/C(=O)Nc3cc(Br)ccc32)Nc2ccccc21 | <5 |
| O=C1Nc2ccccc2/C1=C\c1c(Cl)[nH]c2ccccc12 | <5 |
| COc1ccc(CNc2nc(N(CCO)CCO)nc3c2ncn3C(C)C)cc1 | <5 |

Give full length LRRK2 protein (Homo sapiens) pIC50 in vitro (lrrktide) for COc1cc2ncnc(N3CCN(C(=O)Nc4ccc(Oc5ccccc5)cc4)CC3)c2cc1OC
<5

Give full length LRRK2 protein (Homo sapiens) pIC50 in vitro (lrrktide) for CCCNC(=O)Nc1ccc(Oc2ncnc3cc(OC)c(OC)cc23)cc1Cl
<5
